# tgt: USP7 (Homo sapiens, UniProt Q93009)
# Construct: USP7, construct USP7 (208-1102) 6*His, Viva Biotech; 6xHis (C); purchased Viva Biotech
# Sequence (Q93009 208-1102): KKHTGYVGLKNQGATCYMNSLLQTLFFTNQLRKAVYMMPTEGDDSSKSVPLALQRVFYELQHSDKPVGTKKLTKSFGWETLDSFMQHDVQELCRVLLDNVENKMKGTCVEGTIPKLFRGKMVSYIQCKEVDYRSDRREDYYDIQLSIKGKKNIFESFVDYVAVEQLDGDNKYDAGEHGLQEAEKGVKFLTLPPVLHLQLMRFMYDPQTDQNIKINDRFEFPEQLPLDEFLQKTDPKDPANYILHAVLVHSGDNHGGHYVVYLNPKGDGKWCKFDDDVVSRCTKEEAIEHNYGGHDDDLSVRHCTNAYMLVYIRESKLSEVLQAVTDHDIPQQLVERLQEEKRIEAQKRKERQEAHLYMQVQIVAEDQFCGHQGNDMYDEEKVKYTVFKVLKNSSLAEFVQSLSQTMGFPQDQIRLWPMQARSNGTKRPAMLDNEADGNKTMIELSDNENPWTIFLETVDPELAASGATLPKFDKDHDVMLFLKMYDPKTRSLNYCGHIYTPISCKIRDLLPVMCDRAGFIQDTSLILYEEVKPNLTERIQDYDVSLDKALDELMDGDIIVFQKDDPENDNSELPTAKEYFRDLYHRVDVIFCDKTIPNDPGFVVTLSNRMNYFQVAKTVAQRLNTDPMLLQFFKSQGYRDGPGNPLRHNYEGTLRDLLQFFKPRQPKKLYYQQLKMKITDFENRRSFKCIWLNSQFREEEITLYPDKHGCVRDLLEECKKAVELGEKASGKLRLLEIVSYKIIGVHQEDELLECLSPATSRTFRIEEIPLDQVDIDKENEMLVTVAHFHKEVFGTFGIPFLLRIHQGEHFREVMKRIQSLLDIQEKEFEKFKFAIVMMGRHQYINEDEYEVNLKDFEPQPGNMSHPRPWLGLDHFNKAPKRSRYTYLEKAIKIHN
# protocol: USP7 Assay A (Ubitquin-Rhodamine 110 Assay)
# Type: biochemical
# measurement setup: USP7 assay A and B (table does not say which assay per compound); read-out: USP7_IC50
In this section, each of the molecules is paired with its reported IC50.
reported metric: IC50

>>> observed_measurement("C[C@H](CC(=O)N1CCC(O)(Cn2cnc3c(cnn3-c3ccccc3)c2=O)CC1)n1cccn1")
"< 0.2 µM"
>>> observed_measurement("COC1(C)CCN(c2cc(-n3ncc4c(=O)n(CC5(O)CCN(C(=O)C6CC6)CC5)cnc43)ccc2F)C1 (single isomer, unassigned) [Compound I-971]")
"0.2 to 1 µM"
>>> observed_measurement("CC(O)(c1ccc(C(=O)N2CCC(O)(Cn3cnc4c(cnn4-c4ccc(F)cc4)c3=O)CC2)cc1)C(F)(F)F (stereo not shown)")
"1 to 10 µM"
>>> observed_measurement("CN1CCCC(CNc2ccc(-n3ncc4c(=O)n(CC5(O)CCN(C(=O)C6CC6)CC5)cnc43)cc2)C1 (stereo not shown)")
"0.2 to 1 µM"
>>> observed_measurement("CC(=O)N1CCC(O)(Cn2cnc3c(cnn3-c3ccccc3)c2=O)CC1")
"1 to 10 µM"
>>> observed_measurement("O=C(C1CC1)N1CCC(O)(Cn2cnc3c(cnn3-c3ccc(N4CCNCC4)cc3)c2=O)CC1")
"0.2 to 1 µM"
>>> observed_measurement("CN1CCN(c2cc(-n3ncc4c(=O)n(CC5(O)CCN(C(=O)c6ccccc6)CC5)cnc43)ccc2F)CC1")
"1 to 10 µM"

----------
In this section, each of the compounds is paired with its reported IC50.
# tgt: USP7 (Homo sapiens)
# Construct: USP7, construct USP7 (208-1102) 6*His, Viva Biotech; 6xHis (C); purchased Viva Biotech
# protocol: USP7 Assay A (Ubitquin-Rhodamine 110 Assay)
# Format: biochemical
# measurement setup: USP7 activity in USP7 assay A and B (table does not say which assay per compound); read-out: USP7_IC50
reported metric: IC50

>>> observed_measurement("CC1(C(=O)N2CCC(O)(Cn3cnc4c(cnn4-c4ccc(N5CCC6(CC5)COC6)cc4)c3=O)CC2)CC1")
"< 200 nM"
>>> observed_measurement("O=C(c1ccc(F)cc1)N1CCC(O)(Cn2cnc3c(cnn3-c3ccc(-n4cc5c(n4)CCOC5)cc3)c2=O)CC1")
"1000 to 10000 nM"
>>> observed_measurement("CC1(C(=O)N2CCC(O)(Cn3cnc4c(cnn4-c4cccc(N5CC(F)C5)c4)c3=O)CC2)CC1")
"200 to 1000 nM"
>>> observed_measurement("O=C(C1CCC(Oc2cnccn2)CC1)N1CCC(O)(Cn2cnc3c(cnn3-c3ccc(F)cc3)c2=O)CC1 (centres unmarked) [Compound I-1113]")
"< 200 nM"
>>> observed_measurement("C[C@@H](c1ccccc1)c1nn(C)cc1C(=O)N1CCC(O)(Cn2cnc3c(cnn3-c3ccc(F)cc3)c2=O)CC1")
"1000 to 10000 nM"
>>> observed_measurement("CN[C@@H]1CCN(c2ccc(-c3ccc(-n4ncc5c(=O)n(CC6(O)CCN(C(=O)C7CC7)CC6)cnc54)cc3)cc2)C1")
"200 to 1000 nM"
>>> observed_measurement("C[C@H](CC(=O)N1CCC(O)(Cn2cnc3c(cnn3-c3ccc(N4CC[C@@](C)(O)C4)cc3)c2=O)CC1)n1cccn1")
"1000 to 10000 nM"
>>> observed_measurement("O=C(C1CC(Nc2cccnc2)C1)N1CCC(O)(Cn2cnc3c(cnn3-c3ccc(F)cc3)c2=O)CC1 (centres unmarked) [Compound I-1030]")
"200 to 1000 nM"
>>> observed_measurement("O=C(C[C@H](n1cccn1)C(F)(F)F)N1CCC(O)(Cn2cnc3c(cnn3-c3ccc(F)cc3)c2=O)CC1")
"1000 to 10000 nM"
>>> observed_measurement("O=C(C1CC1)N1CCC(O)(Cn2cnc3c(cnn3-c3ccc(-c4cncc(C(F)(F)F)c4)cc3)c2=O)CC1")
"1000 to 10000 nM"
>>> observed_measurement("O=C(c1cnc(C2CC2)o1)N1CCC(O)(Cn2cnc3c(cnn3-c3ccc(-n4cc(CO)cn4)cc3)c2=O)CC1")
"< 200 nM"
>>> observed_measurement("Cn1ncc2c(=O)n(CC3(O)CCN(C(=O)CC(C(F)F)n4ccc(F)n4)CC3)cnc21 (centres unmarked) [Compound I-1753]")
"200 to 1000 nM"
>>> observed_measurement("O=C(C[C@@H](C(F)F)n1ccc(F)n1)N1CCC(O)(Cn2cnc3c(cnn3-c3ccc(Cl)cc3)c2=O)CC1")
"< 200 nM"
>>> observed_measurement("CN1CCC(Oc2ccc(C(=O)N3CCC(O)(Cn4cnc5c(cnn5-c5ccc(Cl)cc5)c4=O)CC3)cn2)C1 (centres unmarked)")
"1000 to 10000 nM"

----------
# tgt: USP7 (Homo sapiens, UniProt Q93009)
# Construct: USP7, construct USP7 (208-1102) 6*His, Viva Biotech; 6xHis (C); purchased Viva Biotech
# protocol: USP7 Assay A (Ubitquin-Rhodamine 110 Assay)
# Format: biochemical
# measurement setup: USP7 activity in USP7 assay A and B (table does not say which assay per compound); read-out: USP7_IC50
reported metric: IC50

>>> observed_measurement("O=C(C1CC(Nc2ccc(F)cn2)C1)N1CCC(O)(Cn2cnc3c(cnn3-c3ccc(F)cc3)c2=O)CC1 (centres unmarked) [Compound I-1033]")
"1000 to 10000 nM"
>>> observed_measurement("Cn1ccc2c(=O)n(CC3(O)CCN(C(=O)CC(C(F)F)n4ccc(F)n4)CC3)cnc21 (single isomer, unassigned) [Compound I-1696]")
"> 10000 nM"
>>> observed_measurement("O=C(C[C@H](C(F)F)n1cccn1)N1CCC(O)(Cn2cnc3c(cnn3-c3ccc(Cl)cc3)c2=O)CC1")
"1000 to 10000 nM"
>>> observed_measurement("O=C(c1ccc(F)cc1)N1CCC(O)(Cn2cnc3c(cnn3-c3ccc(-c4cnn(C5COC5)c4)cc3)c2=O)CC1")
"200 to 1000 nM"
>>> observed_measurement("Cn1ncc2c1CN(C(=O)N1CCC(O)(Cn3cnc4c(cnn4-c4ccc(F)cc4)c3=O)CC1)CC2")
"1000 to 10000 nM"
>>> observed_measurement("O=C(c1ccc(-c2cnn3c2OCC3)cc1)N1CCC(O)(Cn2cnc3c(cnn3-c3ccc(F)cc3)c2=O)CC1")
"200 to 1000 nM"
>>> observed_measurement("O=C(C1CCC(OC(F)F)CC1)N1CCC(O)(Cn2cnc3c(cnn3-c3ccc(F)cc3)c2=O)CC1 (centres unmarked)")
"1000 to 10000 nM"
>>> observed_measurement("Cc1nc(-c2ccc(-n3ncc4c(=O)n(CC5(O)CCN(C(=O)c6ccc(F)cc6)CC5)cnc43)cc2)c[nH]1")
"1000 to 10000 nM"
>>> observed_measurement("CC1(COc2ccc(-n3ncc4c(=O)n(CC5(O)CCN(C(=O)C6(C)CCC6)CC5)cnc43)cc2)COC1")
"< 200 nM"
>>> observed_measurement("O=C(c1cn(C2CC2)cn1)N1CCC(O)(Cn2cnc3c(cnn3-c3ccc(Cl)cc3)c2=O)CC1")
"1000 to 10000 nM"
>>> observed_measurement("O=C(c1cnn(C2CC2)c1)N1CCC(O)(Cn2cnc3c(ccn3-c3ccc(F)cc3)c2=O)CC1")
"200 to 1000 nM"
>>> observed_measurement("O=C(C1CCC(n2cccn2)CC1)N1CCC(O)(Cn2cnc3c(cnn3-c3ccc(F)cc3)c2=O)CC1 (centres unmarked) [Compound I-548]")
"1000 to 10000 nM"
>>> observed_measurement("O=C(C1CCC(Oc2cccc(F)n2)CC1)N1CCC(O)(Cn2cnc3c(cnn3-c3ccccc3)c2=O)CC1 (centres unmarked) [Compound I-741]")
"< 200 nM"
>>> observed_measurement("Cc1ncc(OC2CCC(C(=O)N3CCC(O)(Cn4cnc5c(cnn5-c5ccc(F)cc5)c4=O)CC3)CC2)cn1 (centres unmarked)")
"200 to 1000 nM"

----------
In this section, each of the compounds is paired with its reported pIC50.
# tgt: USP7 (Homo sapiens)
# Construct: USP7, construct USP7 (208-1102) 6*His, Viva Biotech; 6xHis (C); purchased Viva Biotech
# protocol: USP7 Assay A (Ubitquin-Rhodamine 110 Assay)
# Format: biochemical
# measurement setup: USP7 assay A and B (table does not say which assay per compound); read-out: USP7_IC50
pIC50: −log10 of the molar value.
reported metric: pIC50

>>> observed_measurement("O=C(C1CC1)N1CCC(O)(Cn2cnc3c(cnn3-c3ccc(NS(=O)(=O)C4CC4)cc3)c2=O)CC1")
"5.00 to 6.00"
>>> observed_measurement("O=C(C1CC1)N1CCC(O)(Cn2cnc3c(cnn3-c3cccnc3)c2=O)CC1")
"5.00 to 6.00"
>>> observed_measurement("O=C(c1ccc(-n2ccnn2)cc1)N1CCC(O)(Cn2cnc3c(cnn3-c3ccc(F)cc3)c2=O)CC1")
"6.00 to 6.70"
>>> observed_measurement("O=C(N[C@@H]1CNCC1F)N1CCC(O)(Cn2cnc3c(cnn3-c3ccc(-c4ccccc4)cc3)c2=O)CC1 (stereo partly shown)")
"< 5.00"
>>> observed_measurement("Cc1ccc(-n2ncc3c(=O)n(CC4(O)CCN(C(=O)c5ccc(Oc6ccccc6)cc5)CC4)cnc32)cc1")
"6.00 to 6.70"
>>> observed_measurement("C[C@H](CC(=O)N1CCC(O)(Cn2cnc3c(cnn3-c3ccc(F)cc3)c2=O)CC1)c1ccccc1")
"> 6.70"
>>> observed_measurement("O=C(C1CC1)N1CCC(O)(Cn2cnc3c(cnn3-c3ccc(NCC4CCOCC4)cc3)c2=O)CC1")
"5.00 to 6.00"

Data provenance: patent US9902728B2
